The values you see were collected from patent US10590422B2.

Tested on: human colon cancer HTC-116 cells
Experiment: Cell proliferation assay (calcein-AM) in human colon cancer HTC-116 cells
Type: cell-based
Conditions: treatment 6 h, at 72 h, 0.17% Lipofectamine 2000 or 0.1% Injectin, FIGS. 19B and 20B
MEASURED PROPERTY: proliferation

Check out these entries, answers already filled in.
SUBSTANCE	RESULT
267/356/402 (sense CCGGUCCUGUACCGUCCUCAA; antisense UUGAGGACGGUACAGGACCGG; chemistry not given here)	significantly decreased
58/162/411 (sense CUUCGCCACCUACCUGCUCAA; antisense UUGAGCAGGUAGGUGGCGAAG; chemistry not given here)	significantly decreased
58/387/388 (sense CUUCGCCACCUACCUGCUCAATT; antisense UUGAGCAGGUAGGUGGCGAAGTT; siRNA; sugars by position and backbone not given here; further chemistry not fully specified)	significantly decreased
58/389/390 (sense UCGCCACCUACCUGCUCAATT; antisense UUGAGCAGGUAGGUGGCGATT; siRNA; sugars by position and backbone not given here; further chemistry not fully specified)	significantly decreased

Switching to the query record.
Query block: Let me know recorded proliferation for 61/165/396 (sense CGUGAACUGCUACAGCGUGAA; antisense UUCACUCUGUAGCAGUUCACG; chemistry not given here) , thanks.
Result block: significantly decreased

---

Tested on: human colon cancer HTC-116 cells
Assay: Cell proliferation assay (calcein-AM) in human colon cancer HTC-116 cells
Type: cell-based
Details: treatment 6 h, 72 h exposure, 0.1% Injectin, FIG. 14

SUBSTANCE	TEST SYSTEM	cell proliferation
58/162/411 (sense CUUCGCCACCUACCUGCUCAA; antisense UUGAGCAGGUAGGUGGCGAAG; chemistry not given here)	human colon cancer HTC-116 cells	decreased
278/403/404 (sense UGCCACGGUCGCCUCUGAGAATT; antisense UUCUCAGAGGCGACCGUGGCATT; siRNA; sugars by position and backbone not given here; further chemistry not fully specified)	human colon cancer HTC-116 cells	decreased
61/391/392 (chain 1 CGUGAACUGCUACAGCGUGAATT; chain 2 UUCACUCUGUAGCAGUUCACGTT; siRNA; sugars by position and backbone not given here; further chemistry not fully specified)	human colon cancer HTC-116 cells	decreased
58/389/390 (sense UCGCCACCUACCUGCUCAATT; antisense UUGAGCAGGUAGGUGGCGATT; siRNA; sugars by position and backbone not given here; further chemistry not fully specified)	human colon cancer HTC-116 cells	decreased

---

System: human colon cancer HTC-116 cells
Experiment: Cell proliferation assay (calcein-AM) in human colon cancer HTC-116 cells
Type: cell-based
Conditions: treatment 6 h, at 72 h, 0.17% Lipofectamine 2000 or 0.1% Injectin, FIGS. 19B and 20B
MEASURED PROPERTY: proliferation

SUBSTANCE	MEASURED PROPERTY	RESULT
278/367/408 (sense UGCCACGGUCGCCUCUGAGAA; antisense UUCUCAGAGGCGACCGUGGCA; chemistry not given here)	proliferation	significantly decreased
278/405/406 (sense CCACGGUCGCCUCUGAGAATT; antisense UUCUCAGAGGCGACCGUGGTT; siRNA; sugars by position and backbone not given here; further chemistry not fully specified)	proliferation	significantly decreased
267/399/400 (sense GGUCCUGUACCGUCCUCAATT; antisense UUGAGGACGGUACAGGACCTT; siRNA; sugars by position and backbone not given here; further chemistry not fully specified)	proliferation	significantly decreased
